Just for reference, patent US9896443B2 is where these values come from.

Listed compounds paired with reported log10(IC50)
# system.name: recombinant perforin (UniProt P10820)
# Sequence (P10820 whole entry): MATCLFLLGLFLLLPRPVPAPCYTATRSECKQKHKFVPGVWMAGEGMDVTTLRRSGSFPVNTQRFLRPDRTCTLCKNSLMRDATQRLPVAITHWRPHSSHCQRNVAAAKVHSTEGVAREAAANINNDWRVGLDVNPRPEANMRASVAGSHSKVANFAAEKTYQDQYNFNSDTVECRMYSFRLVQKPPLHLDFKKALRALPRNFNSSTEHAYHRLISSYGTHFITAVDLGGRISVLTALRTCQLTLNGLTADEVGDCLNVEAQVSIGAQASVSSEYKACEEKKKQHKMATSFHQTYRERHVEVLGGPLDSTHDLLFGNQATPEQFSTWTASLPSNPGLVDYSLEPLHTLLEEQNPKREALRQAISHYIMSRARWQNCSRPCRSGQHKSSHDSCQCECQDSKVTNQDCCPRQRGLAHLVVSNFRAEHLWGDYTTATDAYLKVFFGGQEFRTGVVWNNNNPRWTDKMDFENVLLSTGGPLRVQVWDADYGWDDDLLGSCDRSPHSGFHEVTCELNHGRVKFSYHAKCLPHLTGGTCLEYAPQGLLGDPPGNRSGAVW
# Type: cell-based
# recorded.conditions: lysis of Jurkat T lymphoma cells by recombinant perforin, 0.1% BSA, 30 min pre-incubation, 4 hours at 37° C.; read-out: Jurkat IC50
measured.endpoint: log10(IC50) (log10 of the value in nM)

- COc1ccc(S(=O)(=O)Nc2cncc(-c3ccc(-c4ccc5c(c4)CN(C)C5=O)s3)c2)cc1: 3.80
- CN1Cc2cc(-c3ccc(-c4cnc(F)c(NS(=O)(=O)c5ccc(F)cc5F)c4)s3)ccc2C1=O [Compound 39.Na]: 2.88
- CN1Cc2cc(-c3ccc(-c4cncc(NS(=O)(=O)c5cccc(Cl)c5F)c4)s3)ccc2C1=O: 4.11
- CCCCn1cc(C(C)=O)c2cc(-c3ccc(-c4cncc(NS(=O)(=O)c5ccc(F)cc5F)c4)s3)ccc21: 3.74
- CN1Cc2cc(-c3ccc(-c4cncc(S(=O)(=O)Nc5ccc(F)cc5F)c4)s3)ccc2C1=O: 3.35
- CN1Cc2cc(-c3ccc(-c4cncc(NS(=O)(=O)c5ccc(Br)cc5Br)c4)s3)ccc2C1=O: 3.40
- CN1Cc2cc(-c3ccc(-c4cncc(NS(=O)(=O)c5ccccc5Br)c4)s3)ccc2C1=O: 3.42
